From: patent US11802128B2

System: MDA-MB-436 (mutated BRCA1) cells
protocol notes: Cell growth inhibition assay (CellTiter-Glo cell viability, 7 days)
Assay type: cell-based
applied conditions: Homo sapiens, 168 h, MDA-MB-436, 7 days
The following molecules are shown together with reported log10 EC50 values.
// do not treat as linear: log10 of EC50, unit nM

Solved entries:
> print(dat)
                                   molecule  value.kind  assay.result
1  CCc1cc2ncc(CN3CC(Nc4ccc(C(=O)NC)nc4)C3)cc2[nH]c1=O  log10 EC50          0.61
2  CCc1cc2ncc(CN3C[C@H](n4ccc5nc(C#N)ccc54)[C@H]3C)cc2[nH]c1=O  log10 EC50          1.04

What value of log10 EC50 has been reported for the following molecule? `C[C@@H]1[C@@H](Oc2ccc(C(=O)NC3CC3)nc2)CN1Cc1cnc2c(c1)[nH]c(=O)c1ccoc12`
0.15

Now the same for `CNC(=O)c1ccc(O[C@@H]2CCN(Cc3cnc4cc(C5CC5)c(=O)[nH]c4c3)C2)cn1`
0.65

// next record `Cc1cc2ncc(CN3C[C@H](Oc4ccc(C#N)cc4)[C@H]3C)cc2[nH]c1=O`
2.00

Try this molecule too: `CCc1cc2ncc(CN3CC[C@@](C)(Oc4ccc(C(=O)NC)nc4)C3)cc2[nH]c1=O`
1.56

Would you mind doing `Cc1cc2ncc(CN3C[C@H](Oc4ccc(C(=O)NC5CCC5)nc4)[C@H]3C)cc2[nH]c1=O` as well?
0.11

Param item: `[2H]C([2H])(c1cnc2cc(CC)c(=O)[nH]c2c1)N1C[C@H](Oc2ccc(C(=O)NC3CC3)nc2)[C@H]1C`
-0.31

Do the same for `[2H]C([2H])([2H])NC(=O)c1ccc(O[C@H]2CN(C([2H])([2H])c3cnc4cc(CC)c(=O)[nH]c4c3)[C@@H]2C)cn1` please
-0.06

Next up: CCc1cc2ncc([C@@H](C)N3C[C@H](Oc4ccc(C(=O)NC)nc4)[C@H]3C)cc2[nH]c1=O (single isomer, unassigned)
-0.21

Subsequent entry: `CCc1nc2ccc(CN3C[C@H](Oc4ccc(C(=O)NC5CC5)nc4F)[C@H]3C)c(F)c2[nH]c1=O`
0.49

Further, for `C[C@@H]1[C@@H](Oc2ccc(C(=O)NC3CCC3)nc2)CN1Cc1cnc2cc(C(F)F)c(=O)[nH]c2c1` ?
0.04

Try this molecule next: `C[C@@H]1[C@@H](Oc2ccc(C(=O)NC3CC3)nc2F)CN1Cc1cnc2cc(Cl)c(=O)[nH]c2c1`
-0.03

Okay, and `CCc1cc2ncc(CN3CC(n4ccc5nc(C(=O)NC)ccc54)C3)cc2[nH]c1=O` ?
2.11

Try this molecule next: `CCc1cc2ncc(CN3C[C@@H](F)[C@@H](Oc4ccc(C(=O)NC)nc4)C3)cc2[nH]c1=O`
1.40

====

Tested on: MDA-MB-436 (mutated BRCA1) cells
protocol notes: Cell growth inhibition assay (CellTiter-Glo cell viability, 7 days)
Format: cell-based
applied conditions: Homo sapiens, 168 h, MDA-MB-436, 7 days
value kind: pEC50
Keep it numeric: pEC50 is minus log10 of the concentration in mol/L.

Answered examples (6):
> print(dat)
                                   compound                       test.system  assay.result
1  Cc1cc2ncc(CN3C[C@H](Oc4ccc(C#N)nc4)[C@H]3C)cc2[nH]c1=O  MDA-MB-436 (mutated BRCA1) cells          7.18
2  Cc1cc2ncc(CN3CCC(Oc4ccc(C(=O)NCC(F)F)nc4)C3)cc2[nH]c1=O (stereo in doubt)  MDA-MB-436 (mutated BRCA1) cells          8.17
3  C[C@@H]1[C@@H](Oc2ccc(C(=O)NC3CC3)nc2)CN1Cc1cnc2cc(C3CC3)c(=O)[nH]c2c1  MDA-MB-436 (mutated BRCA1) cells          8.96
4  CCc1cc2ncc(CN3CC(Oc4ccc(C#N)cc4)C3)cc2[nH]c1=O  MDA-MB-436 (mutated BRCA1) cells          7.57
5  CCc1cc2ncc([C@H](C)N3C[C@H](Oc4ccc(C(=O)NC)nc4)[C@H]3C)cc2[nH]c1=O (single isomer, unassigned)  MDA-MB-436 (mutated BRCA1) cells          7.92
6  CCc1cc2ncc(CN3CC[C@@H](Oc4ccc(C(=O)NC5COC5)nc4)C3)cc2[nH]c1=O  MDA-MB-436 (mutated BRCA1) cells          8.43

Shifting focus to the compound that follows.
Requested field: pEC50. Item: `CCc1cc2ncc(CN3C[C@H](Oc4ccc(C#N)cn4)[C@H]3C)cc2[nH]c1=O`
7.08
